- System: powdery mildew
- Test method notes: Test Example 9: control test of wheat powdery mildew, cup in greenhouse, inoculated, Norin No. 61 (Tables 10 to 14)
- Type: in vivo, Blumeria graminis
- Parameters: key: Σ(index×leaves)/(4×leaves investigated)×100; 0 = no disease, 100 = max
- Test settings: Table 14; Foliage Treatment, spray 50 ppm suspension water (corresponding to 50 g/ha) 14 days after seeding; untreated 70.0
Listing: Degree of Disease Occurrence of selected molecules
Form rule: numeric answer, no unit written next to it.

The molecule N=C(Nc1ccccc1)c1snc(Cl)c1Cl [Compound (16)] , when measured on powdery mildew, yielded Degree of Disease Occurrence of 19.6

Degree of Disease Occurrence on powdery mildew for N=C(N)c1snc(Cl)c1Cl [Compound (14)] is 18.3

Degree of Disease Occurrence of N=C(N)c1snc(Cl)c1Cl [Compound (13)] , assay on powdery mildew, is 31.3

Entry CCNC(=N)c1snc(Cl)c1Cl [Compound (15)] , powdery mildew data, Degree of Disease Occurrence value: 47.9

---

- Tested on: powdery mildew
- Test method notes: Test Example 9: control test of wheat powdery mildew, cup in greenhouse, inoculated, Norin No. 61 (Tables 10 to 14)
- Format: in vivo, Blumeria graminis
- Test settings: Table 13 run (different day); Foliage Treatment, spray 50 ppm (50 g/ha)
Listed here are molecules together with their documented Disease Leaf Rate (%).
Just the number in %, nothing appended.

Molecule	Output unit	Readout value
N/C(=N\O)c1snc(Cl)c1Cl [Compound (17)]	%	90.6

Entry CC(=O)OCc1snc(Cl)c1Cl [Compound (4)] : Disease Leaf Rate (%) on powdery mildew = 100.0

Summary: O=C(OCc1snc(Cl)c1Cl)c1ccccc1 [Compound (5)] , powdery mildew, Disease Leaf Rate (%) = 100.0

Record for COC(=N)c1snc(Cl)c1Cl [Compound (11)] under target or system powdery mildew: Disease Leaf Rate (%) reported as 99.6

Response field Disease Leaf Rate (%) (powdery mildew) for item COC(=O)c1snc(Cl)c1Cl [Compound (7)] : 100.0

---

Below is a list of entries, each paired with its recorded Degree of Disease Occurrence value.
- Test system: powdery mildew
- Test method notes: Test Example 9: control test of wheat powdery mildew, cup in greenhouse, inoculated, Norin No. 61 (Tables 10 to 14)
- Assay type: in vivo, Blumeria graminis
- Parameters: key: Σ(index×leaves)/(4×leaves investigated)×100; 0 = no disease, 100 = max
- Test settings: Table 12 run (different day); Foliage Treatment, spray 50 ppm (50 g/ha)
Could you keep your reply to the number by itself?

Use these answered entries as a reference point.
Query smiles	Degree of Disease Occurrence
O=S1(=O)N=C(OCc2snc(Cl)c2Cl)c2ccccc21	21.7
N=C(N)c1snc(Cl)c1Cl	21.7
CCNC(=N)c1snc(Cl)c1Cl	38.3

Here is the next item to consider.
Entry `N=C(Nc1ccccc1)c1snc(Cl)c1Cl` ; assay system powdery mildew; Degree of Disease Occurrence recorded at 43.3

---

Listing of entries alongside the reported Degree of Disease Occurrence.
- System: powdery mildew
- Test method notes: Test Example 9: control test of wheat powdery mildew, cup in greenhouse, inoculated, Norin No. 61 (Tables 10 to 14)
- Format: in vivo, Blumeria graminis
- Set-up: key: Σ(index×leaves)/(4×leaves investigated)×100; 0 = no disease, 100 = max
- Test settings: Table 13 run (different day); Foliage Treatment, spray 10 ppm (10 g/ha)
- Description: Degree of Disease Occurrence=Σ(Index×Number of Leaves of Index)/(4×Number of Investigated Leaves)×100 (1) Seed of wheat (variety: Norin No. 61) was used, and 100 ml of suspension waters each containing the compound shown in Table 10 at an amount shown in […] (synthesis was performed in accordance with a known method, a solution dissolved in DMSO or formulated 10% wettable powder was used) were prepared. […]
Please give the numeric answer without any surrounding text.

Query smiles	Assayed target	Readout value
COC(=N)c1snc(Cl)c1Cl	powdery mildew	72.6
CCOC(=O)c1snc(Cl)c1Cl	powdery mildew	72.8

Measured on powdery mildew, `CC(=O)OCc1snc(Cl)c1Cl` has a documented Degree of Disease Occurrence of 81.7

The value of Degree of Disease Occurrence recorded for `O=C(OCc1snc(Cl)c1Cl)c1ccccc1` when tested on powdery mildew reads 62.4

Measured Degree of Disease Occurrence for this entry `N/C(=N\O)c1snc(Cl)c1Cl` on powdery mildew: 62.4

---

Degree of Disease Occurrence overview
- System: powdery mildew
- Test method notes: Test Example 9: control test of wheat powdery mildew, cup in greenhouse, inoculated, Norin No. 61 (Tables 10 to 14)
- Format: in vivo, Blumeria graminis
- Parameters: key: Σ(index×leaves)/(4×leaves investigated)×100; 0 = no disease, 100 = max
- Test settings: Table 13 run (different day); Seed Treatment 0.1 g/Seed 1 kg (10 g/ha)
Reply briefly: the number, and no unit.

Consider the worked cases shown below.
Query smiles	Degree of Disease Occurrence
CCOC(=O)c1snc(Cl)c1Cl	49.7
CC(=O)OCc1snc(Cl)c1Cl	47.9
N/C(=N\O)c1snc(Cl)c1Cl	47.9
O=C(OCc1snc(Cl)c1Cl)c1ccccc1	58.1

Alright, here's another compound for you.
Value of measured Degree of Disease Occurrence for the entry `COC(=N)c1snc(Cl)c1Cl` : 50.1

From: patent US20220000117A1
